Can you tell me Ratio for the items I'm about to list?
- Species: Cavia porcellus
- ASSAY_NOTES: Selectivity factor between CCK-B and CCK-A receptors
Answers are plain numbers.

These solved cases illustrate the format of a correct answer.
Prompt line: Recorded Ratio of CC(C)Cn1nnc(-c2cccc(NC(=O)NC3C(=O)N(CCC(C)(C)C)c4ccccc4N(c4ccccc4)C3=O)c2)n1 (racemic) , please.
Response line: 20

Prompt line: Request: O=C(Nc1ccc(O)cc1)NC1C(=O)N(CC23C[C@H]4C[C@@H](C2)C[C@@H](C3)C4)c2ccccc2N(c2ccccc2)C1=O (single isomer, unassigned; (+))
Response line: 30900

Next molecule, please.
Prompt line: Recorded Ratio of O=C(Nc1cccc(CO)c1)NC1C(=O)N(CC23C[C@H]4C[C@@H](C2)C[C@@H](C3)C4)c2ccccc2N(c2ccccc2)C1=O (single isomer, unassigned; (+)) , please.
Response line: 12000
